- target entity: hERG potassium ion channel (Homo sapiens, UniProt Q12809)
- Sequence (Q12809 whole entry): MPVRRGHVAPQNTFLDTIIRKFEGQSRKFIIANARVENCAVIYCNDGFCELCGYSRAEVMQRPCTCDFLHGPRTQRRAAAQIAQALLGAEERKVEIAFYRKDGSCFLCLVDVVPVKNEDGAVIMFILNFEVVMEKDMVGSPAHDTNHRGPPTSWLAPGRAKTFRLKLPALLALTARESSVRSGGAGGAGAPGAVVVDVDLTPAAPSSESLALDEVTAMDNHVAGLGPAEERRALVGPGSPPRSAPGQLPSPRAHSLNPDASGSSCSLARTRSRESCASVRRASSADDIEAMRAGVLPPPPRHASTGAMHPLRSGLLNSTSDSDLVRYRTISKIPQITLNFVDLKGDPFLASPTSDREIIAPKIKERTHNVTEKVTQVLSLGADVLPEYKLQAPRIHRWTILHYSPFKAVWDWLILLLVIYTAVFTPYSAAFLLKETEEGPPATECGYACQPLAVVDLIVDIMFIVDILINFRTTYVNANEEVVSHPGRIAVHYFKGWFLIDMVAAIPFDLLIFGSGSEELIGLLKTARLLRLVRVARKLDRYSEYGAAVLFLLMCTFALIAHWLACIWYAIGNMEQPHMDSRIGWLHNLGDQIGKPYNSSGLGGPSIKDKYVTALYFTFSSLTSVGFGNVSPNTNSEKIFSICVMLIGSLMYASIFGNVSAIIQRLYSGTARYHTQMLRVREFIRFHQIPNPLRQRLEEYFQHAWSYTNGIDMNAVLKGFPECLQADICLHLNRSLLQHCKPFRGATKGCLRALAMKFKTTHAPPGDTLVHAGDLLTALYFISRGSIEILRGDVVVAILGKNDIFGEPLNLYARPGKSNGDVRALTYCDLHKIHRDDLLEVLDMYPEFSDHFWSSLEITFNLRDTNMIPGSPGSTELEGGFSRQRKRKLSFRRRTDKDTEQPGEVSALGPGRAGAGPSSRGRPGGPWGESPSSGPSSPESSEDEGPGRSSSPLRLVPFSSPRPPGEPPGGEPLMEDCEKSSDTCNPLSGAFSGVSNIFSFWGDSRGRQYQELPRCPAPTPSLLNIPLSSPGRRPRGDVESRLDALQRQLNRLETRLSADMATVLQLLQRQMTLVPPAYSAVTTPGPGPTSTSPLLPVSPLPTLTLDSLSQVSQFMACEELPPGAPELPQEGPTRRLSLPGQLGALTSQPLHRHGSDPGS
- assay method text: Inhibition test on hERG potassium ion channel (automated patch clamp, CHO-hERG cells)
- test conditions: Qpatch, highest test concentration 40.00 μM
pIC50: −log10 of the molar value. Where a name gives a salt, the structure may show the parent alone.
value kind: pIC50

>>> assay_value("Cc1cc(N[C@H]2CN3CCC2CC3)nnc1-c1ccc2c(c1O)CCC2 [Hydrochloride of compound 7]")
4.43
>>> assay_value("Cc1cc(NC2CN(C)CC(F)(F)C2)nnc1-c1ccc2sccc2c1O (single isomer, unassigned) [Compound 70a]")
4.47
>>> assay_value("Cc1cc(N[C@@H]2CCCN(C3COC3)C2)nnc1-c1ccc2c(c1O)CCC2")
4.68

* * *

- assay method text: In vivo pharmacokinetic evaluation in CD-1 mice
- test conditions: male, mouse, plasma, 1 mg/kg, dose IV/PO 1/2 mg/kg, read-out: Clearance rate CL
value kind: clearance (mL/min/kg)

>>> assay_value("Cc1cc(N[C@@H]2CCCN(C3COC3)C2)nnc1-c1ccc(C2CC2)cc1O")
9.56
>>> assay_value("Cc1cc(N[C@@H]2CCCN(CC#N)C2)nnc1-c1ccc(C2CC2)cc1O")
6.49
>>> assay_value("Cc1cc(N[C@@H]2CCCN(C)C2)nnc1-c1ccc(-c2ccc(F)cc2)cc1O")
0.795
>>> assay_value("Cc1cc(N[C@@H]2CCCN(C3COC3)C2)nnc1-c1ccc2sccc2c1O")
16.6

* * *

- assay method text: In vivo pharmacokinetic evaluation in CD-1 mice
- test conditions: male, mouse, plasma, 1 mg/kg, dose IV/PO 1/2 mg/kg, read-out: Tissue distribution Vdss
value kind: Vd (L/kg)

>>> assay_value("Cc1cc(N[C@@H]2CCCN(C3COC3)C2)nnc1-c1ccc(C2CC2)cc1O [Compound 22]")
0.718
>>> assay_value("Cc1cc(N[C@@H]2CCCN(C)C2)nnc1-c1ccc(-c2ccc(F)cc2)cc1O [Compound 4]")
1.72
>>> assay_value("Cc1cc(N[C@@H]2CCCN(C3COC3)C2)nnc1-c1ccc2sccc2c1O [Compound 26]")
1.71
>>> assay_value("Cc1cc(N[C@@H]2CCCN(CC#N)C2)nnc1-c1ccc(C2CC2)cc1O [Compound 23]")
0.618

* * *

Collected bioavailability values appear next to each entry.
- assay method text: In vivo pharmacokinetic evaluation in CD-1 mice
- test conditions: male, mouse, plasma, dose IV/PO 1/2 mg/kg, read-out: Bioavailability F
value kind: bioavailability (%)

>>> assay_value("Cc1cc(N[C@@H]2CCCN(C3COC3)C2)nnc1-c1ccc2sccc2c1O")
78.8
>>> assay_value("Cc1cc(N[C@@H]2CCCN(CC#N)C2)nnc1-c1ccc(C2CC2)cc1O")
79.9
>>> assay_value("Cc1cc(N[C@@H]2CCCN(C)C2)nnc1-c1ccc(-c2ccc(F)cc2)cc1O")
102
>>> assay_value("Cc1cc(N[C@@H]2CCCN(C3COC3)C2)nnc1-c1ccc(C2CC2)cc1O")
62.4
